Data origin, for the record: PubChem BioAssay (NCI)

- Tested on: MCF7 breast
- assay summary: NCI tumour cell line growth inhibition, 48 h
measure: TGI

Quick one: TGI of `COc1ccc(Nc2nn3c(=O)c4c(C)c(C)sc4nc3s2)cc1` ? > 100 µM

Entry `CN(C)c1ccc(Nc2ncnc3ccccc23)cc1` : reported TGI = ? > 100 µM

Consider the molecule `Cc1c(S(=O)(=O)/N=C(\NN)Nc2ccc(Cl)cc2)sc2ccc(Cl)cc12` and give its measured TGI. 30.2 µM

Suppose we examine the molecule `CCOC(=O)c1c(NC(=O)COc2cccc3cccnc23)sc(C(=O)N(C)C)c1C` ; what TGI value has been reported? 42.5 µM

What does the record list as TGI for `COc1ccc2c(c1)oc1c(C)c3c(c(C)c12)C(=O)N(N)C3=O` ? > 100 µM

# query: TGI of entry `Cc1ccc(/C(=N/NS(=O)(=O)c2ccc([N+](=O)[O-])cc2)Sc2cc(Cl)c(C)cc2S(N)(=O)=O)cc1` > 100 µM
